B1: tRNA (parent)
chain: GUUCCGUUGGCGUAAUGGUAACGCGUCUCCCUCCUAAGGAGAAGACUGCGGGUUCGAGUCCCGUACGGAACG

# Variants of: B1
# METHOD_NOTES: yeast fitness relative to wild type (ratio to wild type); higher = fitter; tRNA-Arg(CCU), competitive growth, 37 C, YPD
Fewer inactive variants are shown than the library holds.
Measured yeast fitness, listed per entry.

Examples from the recorded data:
PRIMARY_SEQUENCE	yeast fitness
GAUCCGUUGGCGUAAUGGUAACGCGUCUCCCUCCUAAGGAGAAGACUGCGGGUUCGUGUCCCGUUCGGAACG [U2A A57U A65U]	≤ 0.5
GUUCCGUCGGCAUAAUGGUACCGCGUCUCCCUCCUAAGGAGAAGACUGCGGGUUCGAGUCCCGUACGGAACG [U8C G12A A21C]	≤ 0.5
GUUCCGUUGGCGUAAUGGUAACGCGUCUCCCUUCUAAGGAGAAGACUGCGGGUUCGAGUCGCGUACGCAACG [C33U C61G G68C]	≤ 0.5
GUUCAGUUGGCGUAAUGGUAACGCGUCUCCCUCCUAAGGGGAAGACUGCGGGUUCGAGUCCUGUACGGAACG [C5A A40G C62U]	≤ 0.5
GUUCCGUUGGCGAAAUGGUAACGCGUCUCCCUCAUAGGGAGAAGACUGCGGGUUCGAGUCCCGUACGGAACG [U13A C34A A37G]	≤ 0.5

Incoming: # lookup: yeast fitness of GUUCCGUUGGCGUAAUGCUAACGCGUCUCCGUCCUAAGGAGAAGACUGCGGGUUGGCGUCCCGUACGGAACG [G18C C31G C55G A57C]
Outgoing: ≤ 0.5

Incoming: Query: yeast fitness; subject: GUUACGUUGGCGUAAUGGUAACGCGUCUCCCUCCUAAGCACAAGACUGCGGGUUCCAGUCCCGUACGGAACG [C4A G39C G41C G56C]
Outgoing: ≤ 0.5

Incoming: State the recorded yeast fitness for this entry: GUUCCGUUCGCGUAAUGGUAACGCGUCUCCCUCCUAAGGGGGAGACUGCGGGUUCGUGUCCGGUAUGGAACG [G9C A40G A42G A57U C62G C66U]
Outgoing: 0.565

Incoming: // returns reported yeast fitness for input GUUCUGUUGGCGUAAUGGUAACGCGUCUCCCUCCUAAGGAGAAGACUGCGGGUUCGACCCCCGUACGGAGCG [C5U G58C U59C A70G]
Outgoing: ≤ 0.5

Incoming: Which yeast fitness is listed for GUUCCGUUGGCGUAAUGGUAACGCGUCUCCCUCCUAAGGGGAGGACUGCGGGUUUGAGUCCCGUACGGAACG [A40G A43G C55U] ?
Outgoing: 0.565

Incoming: Recorded yeast fitness of GUUCCGUUGGCGUAAUGGUAACGCGUCUCCCUCCUAAAGAGAUGACUGCGGGUUCAAGUCCCGUACGGAACG [G38A A43U G56A] , please.
Outgoing: 0.596

Incoming: Which yeast fitness value belongs to GUUCCGUUGGCGUAAUGGUUACGCGUCUCCCUCCUGAGGAGAUGACUGCGGGUUCGAGUCCCGUACGGAACG [A20U A36G A43U] ?
Outgoing: 0.601

Incoming: Requested read-out: yeast fitness. Entry: GUUCCGUUGGCGUAAUGGUAACGCGUCUCCCCCCUAAGGAGAAGUCUGCGGGUUCGAGUCCCGUAAGGAACG [U32C A45U C66A]
Outgoing: ≤ 0.5

Incoming: Please look up its yeast fitness: GUUCUGUUGGUGUAAUGGUUACGCGUCUCCCUCCUAAGGAGAAGACUGCGGGUUCGAGUCCCGUACGGAACG [C5U C11U A20U]
Outgoing: 0.561

Incoming: Given the variant GUUCCAUUGACGUAAUGGUAACGCGAUUACCUCCUAAGGAGAAGACUGCGGGUUCGAGUCCCGUGCGCAACG [G6A G10A U26A C27U C29A A65G G68C] , what is its reported yeast fitness?
Outgoing: ≤ 0.5
